target: interaction between p53 and MDM2 proteins (recombinant GST-tagged MDM2 / p53 peptide) (Homo sapiens, UniProt Q00987); test: HTRF assay of inhibition of p53-MDM2 interaction; settings: 0.02% BSA; HTRF GST-MDM2 / biotinylated p53 peptide
Sequence (Q00987 whole entry): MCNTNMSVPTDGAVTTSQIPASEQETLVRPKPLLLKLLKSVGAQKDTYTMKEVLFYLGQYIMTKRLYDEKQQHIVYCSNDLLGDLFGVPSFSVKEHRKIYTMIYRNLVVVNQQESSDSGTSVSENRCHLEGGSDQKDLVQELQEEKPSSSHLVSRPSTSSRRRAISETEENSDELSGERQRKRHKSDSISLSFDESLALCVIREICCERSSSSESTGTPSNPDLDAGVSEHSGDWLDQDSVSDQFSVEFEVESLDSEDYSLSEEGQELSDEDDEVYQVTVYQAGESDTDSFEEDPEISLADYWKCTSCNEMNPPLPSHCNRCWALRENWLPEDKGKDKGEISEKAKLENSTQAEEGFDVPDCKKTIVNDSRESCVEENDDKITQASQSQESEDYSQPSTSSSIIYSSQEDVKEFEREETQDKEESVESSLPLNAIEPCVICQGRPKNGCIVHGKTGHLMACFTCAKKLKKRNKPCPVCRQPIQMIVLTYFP
Experimental Readout: IC50 (nM)

Examples with answers:
compound="Cc1ccc(F)cc1[C@@H]1NC(=O)C[C@H](c2cc(Cl)cnc2OC(C)(C)C(=O)O)[C@@]12C(=O)Nc1cc(Cl)ccc12 [Example 9]" experimental_readout=IC50 result=108
compound="Cc1ccc(F)cc1[C@@H]1NC(=O)C[C@H](c2cc(Cl)cnc2OC(C)(C)C(=O)NS(C)(=O)=O)[C@@]12C(=O)Nc1cc(Cl)ccc12 [Example 11]" experimental_readout=IC50 result=135

(I) Cc1ccc(F)cc1[C@@H]1NC(=O)C[C@H](c2cc(Cl)cnc2OC(C)(C)C(=O)O)[C@@]12C(=O)Nc1cc(Cl)ccc12 (racemic) [Example 8]
(II) Cc1ccc(Cl)cc1[C@@H]1NC(=O)C[C@H](c2cc(Cl)cnc2OC(C)(C)C(=O)O)[C@@]12C(=O)Nc1cc(Cl)ccc12 [Example 15]
Req: I'm curious whether I or II has the smaller IC50 number. Which is it? Response format: the label of the selected entry.
Resp: II
(II: 56 nM, I: 145 nM)
